Tested on: Glomerella lagenarium
Assay: Glomerella lagenarium syn. Colletotrichum lagenarium (anthracnose of cucurbits), liquid culture growth inhibition
Type: cell-based
Conditions: Colletotrichum orbiculare, nutrient broth (PDB), 72 hrs, photometric at 620 nm, compared to untreated control
Recorded inhibition of growth at 20 ppm, one value per entry.

inhibition of growth at 20 ppm for CO/C=C(\Oc1cc(C2=CCCCC2)ccc1C)C(=O)OC [F.2] is ≥ 80%

inhibition of growth at 20 ppm for CO/C=C(\Oc1cc(C2CCCCC2)c(F)cc1C)C(=O)OC [E.16] is ≥ 80%

inhibition of growth at 20 ppm for CO/C=C(\Oc1cc(C2=CC(C)(C)CCC2=O)ccc1C)C(=O)OC [F.1] is ≥ 80%

inhibition of growth at 20 ppm for CO/C=C(\Oc1cc(C2CCC(C(F)F)CC2)ccc1C)C(=O)OC (stereo not shown) [E.22] is ≥ 80%

// next entry
inhibition of growth at 20 ppm for CO/C=C(\Oc1cc(C2CCC(=NOC)CC2)ccc1C)C(=O)OC (stereo not shown) [E.20] is ≥ 80%

---

Test system: Glomerella lagenarium
Assay: Glomerella lagenarium syn. Colletotrichum lagenarium (anthracnose of cucurbits), liquid culture growth inhibition
Assay type: cell-based
Details: Colletotrichum orbiculare, nutrient broth (PDB), 72 hrs, photometric at 620 nm, compared to untreated control
Procedure: Glomerella lagenarium Syn. Colletotrichum lagenarium (Anthracnose of Cucurbits): Conidia of the fungus from cryogenic storage were directly mixed into nutrient broth (PDB potato dextrose broth). A DMSO solution of the test compounds was placed into a microtiter plate (96-well format) and the nutrient broth containing the fungal spores was added to it. The test plates were incubated at 24° C. and the inhibition of growth was determined photometrically after 72 hrs at 620 nm. […]
Reported endpoint: inhibition of growth at 20 ppm

// worked examples, inhibition of growth at 20 ppm included
Tested on Glomerella lagenarium: CO/C=C(\Oc1cc(C2CCC(OC(F)F)CC2)ccc1C)C(=O)OC (stereo not drawn) . Observed inhibition of growth at 20 ppm: ≥ 80%

Tested on Glomerella lagenarium: "CO/C=C(\Oc1cc(C2CCCCC2)ccc1F)C(=O)OC" . Observed inhibition of growth at 20 ppm: ≥ 80%

// next entry
Tested on Glomerella lagenarium: CO/C=C(\Oc1cc(C2=CCC(C(F)F)CC2)ccc1C)C(=O)OC (stereo not drawn) . Observed inhibition of growth at 20 ppm: ≥ 80%

---

Tested on: Puccinia recondita
Experiment: Example C: comparative activity against Puccinia recondita (brown rust), curative, wheat leaf segments
Format: in vivo
Conditions: 60 ppm, 8 dpi
Recorded control (%) Puccinia recondita (Brown rust), curative, one value per entry.
Please reply with the bare figure in % and do not write the unit itself.

// worked examples, control (%) Puccinia recondita (Brown rust), curative included
control (%) Puccinia recondita (Brown rust), curative for CO/C=C(\Oc1cc(C2CCCCC2)ccc1C)C(=O)OC [E.15] is 100

control (%) Puccinia recondita (Brown rust), curative for CO/C=C(\Oc1cc(C#CC2CCCCC2)ccc1C)C(=O)OC [Compound X-1, reference compound] is 0

control (%) Puccinia recondita (Brown rust), curative for CO/C=C(\Oc1cc(C2CCCC2)ccc1C)C(=O)OC [E.13] is 0

New cases:
control (%) Puccinia recondita (Brown rust), curative for CO/C=C(\Oc1cccc(C(C)(C)C)c1)C(=O)OC [Compound X-2, reference compound] is 0

---

System: Phakopsora pachyrhizi
Test: Example D: comparative activity against Phakopsora pachyrhizi (soybean rust), soybean plants sprayed, leaf disks cut from treated plants
Format: in vivo
Conditions: 200 ppm, 0.1% OCHIMA, leaf disks cut one day after application, approx. 12 dpi
Recorded control (%) Phakopsora pachyrhizi (Soybean rust), one value per entry.
Please reply with the bare figure in % and do not write the unit itself.

// worked examples, control (%) Phakopsora pachyrhizi (Soybean rust) included
control (%) Phakopsora pachyrhizi (Soybean rust) for "CO/C=C(\Oc1cc(C2CCCCC2)ccc1C)C(=O)OC" is 99

control (%) Phakopsora pachyrhizi (Soybean rust) for "CO/C=C(\Oc1cc(C2CCCC2)ccc1C)C(=O)OC" is 98

control (%) Phakopsora pachyrhizi (Soybean rust) for CO/C=C(\Oc1cccc(C(C)(C)C)c1)C(=O)OC [Compound X-2, reference compound] is 0

// next entry
control (%) Phakopsora pachyrhizi (Soybean rust) for CO/C=C(\Oc1cc(C#CC2CCCCC2)ccc1C)C(=O)OC [Compound X-1, reference compound] is 63
